Target: Muscarinic acetylcholine receptor M1 (Rattus norvegicus, UniProt P08482)
Sequence (P08482 whole entry): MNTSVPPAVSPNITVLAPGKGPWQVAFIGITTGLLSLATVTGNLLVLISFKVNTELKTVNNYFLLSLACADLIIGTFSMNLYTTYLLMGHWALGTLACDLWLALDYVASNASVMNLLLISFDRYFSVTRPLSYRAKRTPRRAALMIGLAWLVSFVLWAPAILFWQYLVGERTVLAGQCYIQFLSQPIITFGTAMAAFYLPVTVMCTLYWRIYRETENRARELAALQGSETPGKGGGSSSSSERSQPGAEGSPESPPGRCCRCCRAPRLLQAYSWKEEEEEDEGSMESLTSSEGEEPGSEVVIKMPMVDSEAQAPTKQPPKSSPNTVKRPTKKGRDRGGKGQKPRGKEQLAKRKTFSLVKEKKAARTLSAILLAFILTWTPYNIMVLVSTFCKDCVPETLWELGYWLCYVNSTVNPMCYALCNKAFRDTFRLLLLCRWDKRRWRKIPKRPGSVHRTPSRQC
Experiment: Inhibitory concentration was evaluated for irreversible inhibition at rat forebrain muscarinic receptor
Measured Property: pIC50
# reply with the number alone; pIC50 is -log10 of concentration in mol/L

# input Entry under review: "O=C1Nc2cccnc2N(C(=O)CN2CCN(CCCCCCCCCCNC(=S)Nc3cccc(N=C=S)c3)CC2)c2ccccc21" . Reported pIC50?
# output 9.82
